Assay: Solubility study, visually estimated by dosing solvent aliquots into 10.0 mg API
Assay type: physicochemical
Conditions: thermodynamic from solid; Water, 40° C.; read-out: Solubility at 40° C.
endpoint: solubility

Asked: Please indicate solubility recorded for O=C(O)c1nc2ccccc2n([C@H]2C[C@H]3CCC[C@@H](C2)N3C2CC3CCCC(C3)C2)c1=O (stereo partly shown) [Form A]
Given back: < 6000 µg/mL

###

Test: Solubility study, visually estimated by dosing solvent aliquots into 10.0 mg API
Format: physicochemical
Conditions: organic solvent or mixture, thermodynamic from solid; EtOAc, 40° C.; read-out: Solubility at 40° C.
endpoint: solubility

Asked: Hello, please tell me recorded solubility for this one: O=C(O)c1nc2ccccc2n([C@H]2C[C@H]3CCC[C@@H](C2)N3C2CC3CCCC(C3)C2)c1=O (stereo partly shown) [Form A]
Given back: < 6000 µg/mL

###

Test: Solubility study, visually estimated by dosing solvent aliquots into 10.0 mg API
Format: physicochemical
Conditions: organic solvent or mixture, thermodynamic from solid; MeOH, 40° C.; read-out: Solubility at 40° C.
endpoint: solubility

Asked: Could you please provide reported solubility for O=C(O)c1nc2ccccc2n([C@H]2C[C@H]3CCC[C@@H](C2)N3C2CC3CCCC(C3)C2)c1=O (stereo partly shown) [Form A] ? Thanks!
Given back: < 7000 µg/mL

###

Test: Solubility study, visually estimated by dosing solvent aliquots into 10.0 mg API
Type: physicochemical
Details: organic solvent or mixture, thermodynamic from solid; Toluene, 40° C.; read-out: Solubility at 40° C.
endpoint: solubility

Asked: Name the recorded solubility of the item O=C(O)c1nc2ccccc2n([C@H]2C[C@H]3CCC[C@@H](C2)N3C2CC3CCCC(C3)C2)c1=O (stereo partly shown) [Form A] in your answer.
Given back: < 7000 µg/mL

###

Test: Solubility study, visually estimated by dosing solvent aliquots into 10.0 mg API
Format: physicochemical
Conditions: organic solvent or mixture, thermodynamic from solid; DCM, 40° C.; read-out: Solubility at 40° C.
endpoint: solubility

Asked: Please look at this compound and report its solubility: O=C(O)c1nc2ccccc2n([C@H]2C[C@H]3CCC[C@@H](C2)N3C2CC3CCCC(C3)C2)c1=O (stereo partly shown) [Form A]
Given back: < 6000 µg/mL

###

Assay: Solubility study, visually estimated by dosing solvent aliquots into 10.0 mg API
Type: physicochemical
Settings: organic solvent or mixture, thermodynamic from solid; IPA:water (9:1), RT; read-out: Solubility at RT
endpoint: solubility

Asked: Complete the entry with solubility for O=C(O)c1nc2ccccc2n([C@H]2C[C@H]3CCC[C@@H](C2)N3C2CC3CCCC(C3)C2)c1=O (stereo partly shown) [Form A]
Given back: < 6000 µg/mL

###

Assay: Solubility study, visually estimated by dosing solvent aliquots into 10.0 mg API
Type: physicochemical
Settings: organic solvent or mixture, thermodynamic from solid; DCM, RT; read-out: Solubility at RT
endpoint: solubility

Asked: Give solubility for O=C(O)c1nc2ccccc2n([C@H]2C[C@H]3CCC[C@@H](C2)N3C2CC3CCCC(C3)C2)c1=O (stereo partly shown) [Form A]
Given back: < 6000 µg/mL

###

Experiment: Solubility study, visually estimated by dosing solvent aliquots into 10.0 mg API
Type: physicochemical
Conditions: organic solvent or mixture, thermodynamic from solid; MeCN, RT; read-out: Solubility at RT
Method: Solubility was assessed in an array of diverse solvents in order to facilitate the selection of solvent systems and corresponding dosing strategies for the subsequent crystal-form screening experiments. The solubility of Form A of Formula (I) was visually estimated in 12 solvents at RT, and if applicable, at 40° C. by dosing small aliquots of the solvent into a fixed amount of the API (10.0 mg) until the dissolution point or a maximum volume of 1.8 mL was reached.
endpoint: solubility

Asked: // Input: O=C(O)c1nc2ccccc2n([C@H]2C[C@H]3CCC[C@@H](C2)N3C2CC3CCCC(C3)C2)c1=O (stereo partly shown) [Form A] . Output its solubility only.
Given back: < 6000 µg/mL
